# procedure-text: Two-week solid-state stability at stressed conditions (high RH / high temperature), assessed by Powder-XRD
# Assay type: physicochemical
# condition-description: 88% RH, two weeks, Powder-XRD
# Excerpt: X-ray Diffraction (XRD) Analysis: A Scintag X-2 theta/theta scanning diffractometer (Scintag Inc., Cupertino Calif.) was employed for the XRD data acquisition for this study. […] Major instrumental parameters are set as follows: 45 KV voltage, 40 mA current, divergent slit width of 2 mm, detector scatter slit width of 0.5 mm and receiving slit width of 0.3 mm. […]
readout-kind: Stability at high RH (88%)

Solved entries:
compound: CC(=O)Nc1cc(N2CCCNCC2)ccc1S(=O)(=O)c1cccc(F)c1.O=C(O)/C=C\C(=O)O [Example 4]
Stability at high RH (88%): Stable
--
compound: CC(=O)Nc1cc(N2CCCNCC2)ccc1S(=O)(=O)c1cccc(F)c1.O=C(O)C(F)(F)F [Example 3]
Stability at high RH (88%): Stable
--
compound: CC(=O)Nc1cc(N2CCCNCC2)ccc1S(=O)(=O)c1cccc(F)c1.O=C(O)/C=C/C(=O)O [Example 9]
Stability at high RH (88%): Unstable**
--
compound: CC(=O)Nc1cc(N2CCCNCC2)ccc1S(=O)(=O)c1cccc(F)c1.Cc1ccc(S(=O)(=O)O)cc1 [Example 8]
Stability at high RH (88%): Stable
--
compound: CC(=O)Nc1cc(N2CCCNCC2)ccc1S(=O)(=O)c1cccc(F)c1 [Example 11]
Stability at high RH (88%): Unstable**

Stability at high RH (88%) for CC(=O)Nc1cc(N2CCCNCC2)ccc1S(=O)(=O)c1cccc(F)c1.Cl [Example 2] is Stable
